# ASSAYED_TARGET: T1, PC1/3 (UniProt P29120 111-753, limits assumed)
# T1 sequence (looked up): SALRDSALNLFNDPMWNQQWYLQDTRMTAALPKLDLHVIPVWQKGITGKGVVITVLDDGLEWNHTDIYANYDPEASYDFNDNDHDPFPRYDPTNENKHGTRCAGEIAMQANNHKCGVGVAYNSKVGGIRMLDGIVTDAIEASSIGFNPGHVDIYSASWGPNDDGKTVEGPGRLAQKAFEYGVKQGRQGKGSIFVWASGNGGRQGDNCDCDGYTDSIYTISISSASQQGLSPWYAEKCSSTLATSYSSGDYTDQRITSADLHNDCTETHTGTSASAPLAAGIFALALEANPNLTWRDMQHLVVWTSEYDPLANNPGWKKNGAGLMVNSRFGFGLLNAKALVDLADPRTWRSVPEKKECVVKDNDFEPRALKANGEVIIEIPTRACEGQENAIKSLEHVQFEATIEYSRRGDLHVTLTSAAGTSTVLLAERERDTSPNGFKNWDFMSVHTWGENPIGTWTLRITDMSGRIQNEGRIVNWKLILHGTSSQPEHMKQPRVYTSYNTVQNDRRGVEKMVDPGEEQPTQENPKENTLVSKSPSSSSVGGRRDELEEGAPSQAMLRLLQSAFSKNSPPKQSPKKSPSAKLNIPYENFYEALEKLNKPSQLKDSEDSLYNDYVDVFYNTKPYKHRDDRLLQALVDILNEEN
# METHOD_DESCRIPTION: enzyme inhibition assay, fluorogenic substrate PyrRTKR-MCA
No end group written: not given here.
MEASURED_PROPERTY: Ki (nM)
Field: numeric (nM). Do not append units.

Query: Need Ki, item LLLLRVKR-NH2 (also called 4 Leu; Multi-Leu (ML)) [LLLLRVKR-NH2]
Response: 454
